Reference source for all entries: paper PMC10336507

# Test target: M. SssI MTase (Spiroplasma monobiae)
# Sequence (P15840 whole entry): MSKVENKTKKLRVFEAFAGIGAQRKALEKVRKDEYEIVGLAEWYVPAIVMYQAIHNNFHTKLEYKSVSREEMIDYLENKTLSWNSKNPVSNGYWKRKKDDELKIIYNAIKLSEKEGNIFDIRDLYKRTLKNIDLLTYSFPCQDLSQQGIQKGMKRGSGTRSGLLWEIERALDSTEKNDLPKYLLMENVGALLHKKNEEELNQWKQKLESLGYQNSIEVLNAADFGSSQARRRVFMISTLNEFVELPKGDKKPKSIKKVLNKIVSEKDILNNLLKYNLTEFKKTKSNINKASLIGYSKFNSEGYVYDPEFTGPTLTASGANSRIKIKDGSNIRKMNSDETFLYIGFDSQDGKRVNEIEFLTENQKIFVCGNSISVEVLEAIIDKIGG
# Procedure details: coupled fluorescence turn-off DNA methylation assay
pIC50: −log10 of the molar value.
Assay readout: pIC50

INSERT INTO results (item_smiles, assay_value) VALUES
  ('Nc1ncn([C@@H]2O[C@H](CO)[C@@H](O)[C@H]2O)c(=O)n1', 5.42);
